From: ChEMBL document CHEMBL1144242

Assay procedure: Selectivity index, ratio of IC50 for african green monkey Vero cells to IC90 for Mycobacterium tuberculosis H37Rv
Type: toxicity, cell-based
Conditions used: read-out: Selectivity Index
Returns Y if the recorded selectivity ratio is greater than or equal to 2, and N otherwise.

Compound | Class name
O=C1Nc2ccc(OC(F)(F)F)cc2/C1=N/NC(=S)Nc1ccc(Br)cc1 | Y
CCCCNC(=S)N/N=C1\C(=O)Nc2ccc(C)cc21 | Y
O=C1/C(=N\NC(=S)Nc2ccc(F)cc2)c2cc(OC(F)(F)F)ccc2N1CN1CCOCC1 | N

Assess whether reported selectivity ratio for `O=C1Nc2ccc(OC(F)(F)F)cc2/C1=N/NC(=S)Nc1ccc(F)cc1` sits at 2 or higher.
N

Does selectivity ratio meet or surpass 2 for `O=C1Nc2ccc(OC(F)(F)F)cc2/C1=N/NC(=S)Nc1ccc(Cl)cc1` ?
Y
